Here we list compounds with their recorded IC50 when tested on UniProt P17706.
Sequence (P17706 whole entry): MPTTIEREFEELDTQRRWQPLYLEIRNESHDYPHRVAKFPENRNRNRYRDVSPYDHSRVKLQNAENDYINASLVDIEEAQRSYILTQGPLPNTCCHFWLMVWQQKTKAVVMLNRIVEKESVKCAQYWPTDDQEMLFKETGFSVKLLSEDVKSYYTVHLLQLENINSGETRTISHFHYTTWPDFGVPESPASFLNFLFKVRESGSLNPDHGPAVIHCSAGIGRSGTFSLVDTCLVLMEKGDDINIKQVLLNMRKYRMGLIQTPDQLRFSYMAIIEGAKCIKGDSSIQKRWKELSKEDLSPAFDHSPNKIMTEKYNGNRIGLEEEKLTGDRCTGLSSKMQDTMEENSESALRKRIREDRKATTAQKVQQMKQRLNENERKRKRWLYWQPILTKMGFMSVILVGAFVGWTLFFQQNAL

# Item Smiles, Target Or System, Output Unit, IC50
measured = [
    ("CC1(C)CC[C@]2(C(=O)O)CC[C@]3(C)C(=CC[C@@H]4[C@@]5(C)Cc6cnn(C(=O)c7ccncc7)c6C(C)(C)[C@@H]5CC[C@]43C)[C@@H]2C1", "UniProt P17706", "µM", 3.62),
    ("CC1(C)CC[C@]2(C(=O)O)CC[C@]3(C)C(=CC[C@@H]4[C@@]5(C)Cc6cnn(-c7ccccc7)c6C(C)(C)[C@@H]5CC[C@]43C)[C@@H]2C1", "UniProt P17706", "µM", 3.8),
    ("CC1(C)CC[C@]2(C(=O)O)CC[C@]3(C)C(=CC[C@@H]4[C@@]5(C)Cc6cn[nH]c6C(C)(C)[C@@H]5CC[C@]43C)[C@@H]2C1", "UniProt P17706", "µM", 5.99),
    ("CCCCCC(=O)n1ncc2c1C(C)(C)[C@@H]1CC[C@]3(C)[C@H](CC=C4[C@@H]5CC(C)(C)CC[C@]5(C(=O)O)CC[C@]43C)[C@@]1(C)C2", "UniProt P17706", "µM", 5.56),
    ("CC1(C)CC[C@]2(C(=O)O)CC[C@]3(C)C(=CC[C@@H]4[C@@]5(C)Cc6cnoc6C(C)(C)[C@@H]5CC[C@]43C)[C@@H]2C1", "UniProt P17706", "µM", 8.44),
    ("CC(=O)n1ncc2c1C(C)(C)[C@@H]1CC[C@]3(C)[C@H](CC=C4[C@@H]5CC(C)(C)CC[C@]5(C(=O)O)CC[C@]43C)[C@@]1(C)C2", "UniProt P17706", "µM", 4.93),
]

###

Species: Homo sapiens
Protocol Text: Selectivity, ratio of IC50 for GST-tagged human TCPTP to IC50 for GST-tagged human PTP 1B
Parameter: Ratio IC50. Scope: all listed entries.

# Item Smiles, Ratio IC50
records = [
    ("CCCCCC(=O)n1ncc2c1C(C)(C)[C@@H]1CC[C@]3(C)[C@H](CC=C4[C@@H]5CC(C)(C)CC[C@]5(C(=O)O)CC[C@]43C)[C@@]1(C)C2", 3.2),
    ("CC1(C)CC[C@]2(C(=O)O)CC[C@]3(C)C(=CC[C@@H]4[C@@]5(C)Cc6nccnc6C(C)(C)[C@@H]5CC[C@]43C)[C@@H]2C1", 4.6),
    ("O=C(O)C(=O)c1ccc(OCc2ccc(COc3ccc(C(=O)C(=O)O)cc3)cc2)cc1", 1.6),
    ("Cc1ncc2c(n1)C(C)(C)[C@@H]1CC[C@]3(C)[C@H](CC=C4[C@@H]5CC(C)(C)CC[C@]5(C(=O)O)CC[C@]43C)[C@@]1(C)C2", 2.5),
]

###

In this section, each of the compounds is paired with its reported Ratio IC50.
Organism: Homo sapiens
Protocol Text: Selectivity, ratio of IC50 for GST-tagged human TCPTP to IC50 for GST-tagged human PTP 1B

# Item Smiles, Ratio IC50
data = [
    ("CC1(C)CC[C@]2(C(=O)O)CC[C@]3(C)C(=CC[C@@H]4[C@@]5(C)Cc6cncnc6C(C)(C)[C@@H]5CC[C@]43C)[C@@H]2C1", 3),
    ("CC1(C)CC[C@]2(C(=O)O)CC[C@]3(C)C(=CC[C@@H]4[C@@]5(C)Cc6cnoc6C(C)(C)[C@@H]5CC[C@]43C)[C@@H]2C1", 3.3),
    ("CC1(C)CC[C@]2(C(=O)O)CC[C@]3(C)C(=CC[C@@H]4[C@@]5(C)Cc6cnn(-c7ccccc7)c6C(C)(C)[C@@H]5CC[C@]43C)[C@@H]2C1", 2.7),
]
